Ki for assorted molecules
testSystem: UniProtKB O15151
Sequence (O15151 1-125): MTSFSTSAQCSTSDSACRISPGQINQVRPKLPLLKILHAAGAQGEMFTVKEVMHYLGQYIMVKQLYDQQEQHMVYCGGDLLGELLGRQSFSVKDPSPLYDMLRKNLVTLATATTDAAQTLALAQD
experimentNotes: Competitive fluorescence polarization assay for MDMX
Assay type: binding
conditionNotes: competitive FP assay, read-out: Ki (MDMX)
Where a SMILES comes first, the peptide text is derived from it. Bridges are numbered along the chain shown (N, C = ends). [ ]: non-standard residue; d: D form. R8 = C=CCCCCCC[C@@](C)(N)C(=O)O; hLeu = CC(C)CC[C@H](N)C(=O)O; S5 = C=CCCC[C@](C)(N)C(=O)O; Ac3c = NC1(C(=O)O)CC1

{"molecule": "CC(=O)N[C@@H](Cc1ccccc1)C(=O)N[C@]1(C)CCCCCCC=CCCC[C@@](C)(C(=O)N[C@@H](C)C(=O)N[C@@H](C)C(=O)N[C@@H](Cc2ccccc2)C(N)=O)NC(=O)[C@H](CC(C)C)NC(=O)C2(CC2)NC(=O)[C@H](CCC(=O)O)NC(=O)[C@H](Cc2c[nH]c3ccccc23)NC(=O)[C@H](Cc2ccc(O)cc2)NC(=O)[C@H](C)NC1=O [compound 18] (Ac-F[R8]AYWE[Ac3c]L[S5]AAF-NH2; staple 2-9)", "Ki": "< 10 nM"}
{"molecule": "CC(=O)N[C@@H](CC(C)C)C(=O)N[C@H](C(=O)N[C@@H](Cc1ccccc1)C(=O)N[C@]1(C)CCCCCC/C=C\\CCC[C@@](C)(C(=O)N[C@@H](CO)C(=O)N[C@@H](C)C(=O)N[C@@H](C)C(N)=O)NC(=O)[C@H](CCC(C)C)NC(=O)[C@H](CCC(N)=O)NC(=O)[C@H](C)NC(=O)[C@H](Cc2c[nH]c3ccccc23)NC(=O)[C@H](Cc2ccc(O)cc2)NC(=O)[C@H](C)NC1=O)[C@@H](C)O [compound 114] (Ac-LTF[R8]AYWAQ[hLeu][S5]SAA-NH2; staple (Z) 4-11)", "Ki": "10 to 100 nM"}

---

IC50 for assorted compounds
testSystem: UniProtKB O15151
experimentNotes: Competitive fluorescence polarization assay for MDMX
Format: binding
conditionNotes: competitive FP assay, read-out: IC50 (MDMX)
Where a SMILES comes first, the peptide text is derived from it. Bridges are numbered along the chain shown (N, C = ends). [ ]: non-standard residue; d: D form. R8 = C=CCCCCCC[C@@](C)(N)C(=O)O; Cba = N[C@@H](CC1CCC1)C(=O)O; S5 = C=CCCC[C@](C)(N)C(=O)O; Nle = CCCC[C@H](N)C(=O)O

{"compound": "CC[C@H](C)[C@H](NC(C)=O)C(=O)N[C@H](C(=O)N[C@@H](Cc1ccccc1)C(=O)N[C@]1(C)CCCCCCC=CCCC[C@@](C)(C(=O)N[C@@H](C)C(=O)N[C@@H](C)C(=O)N[C@H](C(=O)N[C@H](C)C(N)=O)[C@@H](C)CC)NC(=O)[C@H](CC(C)C)NC(=O)[C@H](CCC(N)=O)NC(=O)[C@H](C(C)C)NC(=O)[C@H](Cc2c[nH]c3ccccc23)NC(=O)[C@H](Cc2ccc(O)cc2)NC(=O)[C@H](Cc2ccccc2)NC1=O)[C@@H](C)O [compound 177] (Ac-ITF[R8]FYWVQL[S5]AAI[dA]-NH2; staple 4-11)", "testSystem": "UniProtKB O15151", "IC50": "100 to 1000 nM"}
{"compound": "CC(=O)N[C@@H](CC(C)C)C(=O)N[C@H](C(=O)N[C@@H](Cc1ccccc1)C(=O)N[C@]1(C)CCCCCCC=CCCC[C@@](C)(C(=O)N[C@@H](C)C(=O)N[C@@H](C)C(=O)N[C@@H](C)C(=O)N[C@@H](C)C(=O)N[C@@H](C)C(=O)N[C@H](C)C(N)=O)NC(=O)[C@H](CC2CCC2)NC(=O)[C@H](CCC(N)=O)NC(=O)[C@H](C)NC(=O)[C@H](Cc2c[nH]c3ccccc23)NC(=O)[C@H](Cc2ccc(O)cc2)NC(=O)[C@H](CCC(=O)O)NC1=O)[C@@H](C)O (single isomer, unassigned)", "testSystem": "UniProtKB O15151", "IC50": "10 to 100 nM"}
{"compound": "CCCC[C@H](NC(=O)[C@H](C)NC(=O)[C@H](C)NC(=O)C(C)(C)NC(=O)[C@H](CC(C)C)NC(=O)[C@H](CCC(N)=O)NC(=O)[C@H](C)NC(=O)[C@H](Cc1c[nH]c2ccccc12)NC(=O)[C@H](Cc1ccc(O)cc1)NC(=O)[C@H](C)NC(=O)C(C)(C)NC(=O)[C@H](Cc1ccccc1)NC(=O)[C@@H](NC(=O)[C@H](CC(C)C)NC(C)=O)[C@@H](C)O)C(=O)N[C@@H](C)C(N)=O", "testSystem": "UniProtKB O15151", "IC50": "10 to 100 nM"}
{"compound": "CCCC[C@H](NC(=O)[C@H](Cc1c[nH]c2ccccc12)NC(=O)[C@H](C)NC(=O)[C@]1(C)CCCC=CCCCCCC[C@@](C)(NC(=O)[C@H](Cc2ccccc2)NC(=O)[C@@H](NC(=O)[C@H](CC(C)C)NC(C)=O)[C@@H](C)O)C(=O)N[C@@H](C)C(=O)N[C@@H](Cc2ccc(O)cc2)C(=O)N[C@@H](Cc2c[nH]c3ccccc23)C(=O)N[C@@H](C)C(=O)N[C@@H](CCC(N)=O)C(=O)N[C@@H](CC2CCC2)C(=O)N1)C(=O)N[C@@H](C)C(N)=O [compound 239] (Ac-LTF[R8]AYWAQ[Cba][S5]AW[Nle]A-NH2; staple 4-11)", "testSystem": "UniProtKB O15151", "IC50": "100 to 1000 nM"}

---

pIC50 for assorted compounds
testSystem: MDM2 (Homo sapiens)
experimentNotes: Competitive fluorescence polarization assay for MDM2
Type: binding
conditionNotes: competitive FP assay, MDM2; read-out: IC50 (MDM2)
pIC50: −log10 of the molar value. Where a SMILES comes first, the peptide text is derived from it. Bridges are numbered along the chain shown (N, C = ends). [ ]: non-standard residue; d: D form. R8 = C=CCCCCCC[C@@](C)(N)C(=O)O; Cba = N[C@@H](CC1CCC1)C(=O)O; S5 = C=CCCC[C@](C)(N)C(=O)O; Nle = CCCC[C@H](N)C(=O)O

{"compound": "CC(=O)N[C@@H](CC(C)C)C(=O)N[C@H](C(=O)N[C@@H](Cc1ccccc1)C(=O)N[C@]1(C)CCCCCCC=CCCC[C@@](C)(C(=O)N[C@@H](CO)C(=O)N[C@@H](CC(N)=O)C(=O)N[C@H](C)C(N)=O)NC(=O)[C@H](CC(C)C)NC(=O)[C@H](CCC(N)=O)NC(=O)[C@H](C)NC(=O)[C@H](Cc2c[nH]c3ccccc23)NC(=O)[C@H](Cc2ccc(O)cc2)NC(=O)[C@H](C(C)C)NC1=O)[C@@H](C)O [compound 135] (Ac-LTF[R8]VYWAQL[S5]SN[dA]-NH2; staple 4-11)", "pIC50": "> 8.00"}
{"compound": "CCCC[C@H](NC(=O)[C@H](C)NC(=O)[C@H](C)NC(=O)[C@]1(C)CCCC=CCCCCCC[C@@](C)(NC(=O)[C@H](Cc2ccccc2)NC(=O)[C@@H](NC(=O)[C@H](CC(C)C)NC(C)=O)[C@@H](C)O)C(=O)N[C@@H](C)C(=O)N[C@@H](Cc2ccc(O)cc2)C(=O)N[C@@H](Cc2c[nH]c3ccccc23)C(=O)N[C@@H](C)C(=O)N[C@@H](CCC(N)=O)C(=O)N[C@@H](CC2CCC2)C(=O)N1)C(=O)N[C@@H](C)C(=O)N[C@@H](C)C(N)=O [compound 322] (Ac-LTF[R8]AYWAQ[Cba][S5]AA[Nle]AA-NH2; staple 4-11)", "pIC50": "7.00 to 8.00"}

---

testSystem: MDM2 (Homo sapiens, UniProt Q00987)
Sequence (Q00987 1-125): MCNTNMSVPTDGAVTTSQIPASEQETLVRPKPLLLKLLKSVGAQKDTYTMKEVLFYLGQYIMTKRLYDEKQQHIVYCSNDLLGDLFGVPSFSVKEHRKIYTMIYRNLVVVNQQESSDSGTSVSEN
experimentNotes: Competitive fluorescence polarization assay for MDM2
Type: binding
conditionNotes: competitive FP assay, MDM2; read-out: Ki (MDM2)
pKi: −log10 of the molar value. Where a SMILES comes first, the peptide text is derived from it. Bridges are numbered along the chain shown (N, C = ends). [ ]: non-standard residue; d: D form. R8 = C=CCCCCCC[C@@](C)(N)C(=O)O; Cba = N[C@@H](CC1CCC1)C(=O)O; S5 = C=CCCC[C@](C)(N)C(=O)O
pKi for assorted molecules
assayEndpoint: pKi

{"molecule": "CC(=O)N[C@@H](CC(C)C)C(=O)N[C@H](C(=O)N[C@@H](Cc1ccccc1)C(=O)N[C@]1(C)CCCCCCC=CCCC[C@@](C)(C(=O)N[C@@H](CO)C(=O)N[C@@H](C)C(=O)N[C@@H](Cc2ccccc2)C(=O)N[C@@H](C)C(N)=O)NC(=O)[C@H](CC2CCC2)NC(=O)[C@H](CCC(N)=O)NC(=O)[C@H](C)NC(=O)[C@H](Cc2c[nH]c3ccccc23)NC(=O)[C@H](Cc2ccc(O)cc2)NC(=O)[C@H](CCC(=O)O)NC1=O)[C@@H](C)O [compound 242] (Ac-LTF[R8]EYWAQ[Cba][S5]SAFA-NH2; staple 4-11)", "assayEndpoint": "pKi", "testResult": "> 8.00"}
{"molecule": "CCCC[C@H](NC(=O)[C@H](C)NC(=O)[C@H](C)NC(=O)[C@]1(C)CCCC=CCCCCCC[C@@](C)(NC(=O)[C@H](Cc2ccccc2)NC(=O)[C@@H](NC(=O)[C@H](CC(C)C)NC(C)=O)[C@@H](C)O)C(=O)N[C@@H](C)C(=O)N[C@@H](Cc2ccc(O)cc2)C(=O)N[C@@H](Cc2c[nH]c3ccccc23)C(=O)N[C@@H](C)C(=O)N[C@@H](CCC(N)=O)C(=O)N[C@@H](CC(C)C)C(=O)N1)C(=O)NC(C)(C)C(N)=O (single isomer, unassigned)", "assayEndpoint": "pKi", "testResult": "> 8.00"}
